System: SK-BR-3
Experiment: Antiproliferative activity against human SKBR3 cells expressing HER2 after 72 hrs by MTS/PMS assay
Assay type: functional, cell-based
Conditions: SK-BR-3, 72 h
result-type: IC50 (µM)
One number for each entry, in µM.

compound: CNCCOc1c(OC)cc2cc(NC(=O)c3ccc(OC)c(-c4cccc(OC)c4)c3)c(=O)oc2c1C
result-type: IC50
obs-value: 3.15

compound: COc1cccc(-c2cc(C(=O)Nc3cc4ccc(OC5CN(C(C)=O)C[C@@H](O)[C@H]5O)c(C)c4oc3=O)ccc2OC)c1 (stereo partly specified)
result-type: IC50
obs-value: 10.8

compound: COc1cccc(-c2cc(C(=O)Nc3cc4ccc(O[C@@H]5OCC[C@@H](O)[C@H]5O)c(C)c4oc3=O)ccc2OC)c1
result-type: IC50
obs-value: 6.23

compound: COc1cccc(-c2cc(C(=O)Nc3cc4cc(OC)c(O[C@@H]5OCC[C@@H](O)[C@H]5O)c(C)c4oc3=O)ccc2OC)c1
result-type: IC50
obs-value: 7.18

compound: COc1cccc(-c2cc(C(=O)Nc3cc4ccc(OC5CCN(C)CC5)c(C)c4oc3=O)ccc2OC)c1
result-type: IC50
obs-value: 1.34

Need IC50 for each of these compounds.
1. COc1cccc(-c2cc(C(=O)Nc3cc4cc(OC)c(OP(=O)(OC)OC)c(C)c4oc3=O)ccc2OC)c1
2. COc1cccc(-c2cc(C(=O)Nc3cc4ccc(OC5OC(C)(C)[C@H](OC)[C@@H](O)[C@H]5O)c(C)c4oc3=O)ccc2OC)c1 (stereo partly specified)
3. COc1cccc(-c2cc(C(=O)Nc3cc4cc(OC)c(OC5CCNCC5)c(C)c4oc3=O)ccc2OC)c1

Result:
1. 26.5
2. 7.5
3. 1.2

Need IC50 for each of these compounds.
1. COc1cc2cc(NC(=O)c3cc4ccccc4[nH]3)c(=O)oc2c(C)c1OCCCN(C)C
2. COc1cccc(-c2cc(C(=O)Nc3cc4ccc(O[C@@H]5C[C@H](O)CCO5)c(C)c4oc3=O)ccc2OC)c1
3. COc1cccc(-c2cc(C(=O)Nc3cc4ccc(OCCN(C)C)c(OC)c4oc3=O)ccc2OC)c1
4. COc1cccc(-c2cc(C(=O)Nc3cc4ccc(O[C@H]5OCC[C@@H](O)[C@H]5O)c(OC)c4oc3=O)ccc2OC)c1
5. CNC(=O)Oc1ccc2cc(NC(=O)c3ccc(OC)c(-c4cccc(OC)c4)c3)c(=O)oc2c1C

Result:
1: 0.57; 2: 9.28; 3: 1.77; 4: 11.1; 5: 2.4
